// data source = patent US12661410B2

Study Target: RET (658-1114) (Homo sapiens, UniProt P07949)
Construct: 658-1114; expressed in transfected cells; host or cells: 293T.144 (293T cells, generated in-house)
Sequence (P07949 658-1114): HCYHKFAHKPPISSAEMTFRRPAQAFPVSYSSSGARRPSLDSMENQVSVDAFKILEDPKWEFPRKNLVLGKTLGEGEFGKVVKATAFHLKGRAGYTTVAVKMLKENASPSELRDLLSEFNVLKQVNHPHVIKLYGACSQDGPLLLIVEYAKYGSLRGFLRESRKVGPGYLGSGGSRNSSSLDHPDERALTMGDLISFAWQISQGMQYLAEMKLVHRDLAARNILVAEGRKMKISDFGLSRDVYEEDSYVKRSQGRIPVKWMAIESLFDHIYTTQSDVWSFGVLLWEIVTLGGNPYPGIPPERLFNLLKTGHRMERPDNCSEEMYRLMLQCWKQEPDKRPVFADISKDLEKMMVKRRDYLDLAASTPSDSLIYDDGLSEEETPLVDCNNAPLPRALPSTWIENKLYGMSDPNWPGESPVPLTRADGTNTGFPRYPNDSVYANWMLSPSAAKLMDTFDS
Assay Name: HiBiT-Degradation, RET wild-type degradation assay (Nano-Glo HiBiT Lytic), 293T.144 cells
Assay type: cell-based
Quantity Measured: 293T.144 RET (658-1114) 6.0 hours (IP) [nM]

* COc1cc(N2CCN([C@H]3CC[C@H](n4cc(-c5cn6ncc(C#N)c6c(-c6ccc(N7CC8CC(C7)N8Cc7ccccc7S(C)(=O)=O)nc6)n5)cn4)CC3)CC2)c(F)cc1NC1CCC(=O)NC1=O (stereo partly drawn) | ++++ (<50 nM = ++++)
* CCC1(C(=O)Nc2ccc(F)cc2)CCN(c2ccc(-c3nc(-c4cnn(C5CCN(C(=O)CC6(O)CCN(c7ccc(NC8CCC(=O)NC8=O)cc7Cl)CC6)CC5)c4)cn4ncc(C#N)c34)cn2)CC1 (stereo not drawn) | ++++ (<50 nM = ++++)
* COCC1(Cc2ccccn2)CCN(c2ccc(-c3nc(-c4cnn(C5CCN(C(=O)CC6(O)CCN(c7ccc(NC8CCC(=O)NC8=O)cc7F)CC6)CC5)c4)cn4ncc(C#N)c34)cn2)CC1 (stereo not drawn) | ++++ (<50 nM = ++++)
